Hello, the source for this data is ChEMBL document CHEMBL1201862, in case you need it.

Assay: OVCAR-3 cell viability loss – plate reader, dry powder samples, PAX8 inhibitor project, dose response (AID 743044)
Assay type: functional, cell-based
Calls of active or inactive are those of the source. The rule behind the calls is not given here.
outcomeMeasure: AC50

Known results for molecules:
[
  {
    "compound": "COc1ccc2c3c(n(C)c2c1)[C@H](CO)N(C(=O)Nc1ccc(F)cc1)CC31CCN(C(=O)c2ccc3c(c2)OCO3)CC1",
    "result": "28.6 µM (active)"
  },
  {
    "compound": "COc1ccc(S(=O)(=O)Nc2ccc3c(c2)C(=O)N([C@H](C)CO)C[C@@H](C)[C@@H](CN(C)Cc2ccc(C(F)(F)F)cc2)OCCCC[C@H](C)O3)cc1",
    "result": "5.6 µM (active)"
  },
  {
    "compound": "C[C@@H]1CN([C@@H](C)CO)S(=O)(=O)c2ccc(C#Cc3ccccc3F)cc2O[C@H]1CN(C)C(=O)c1ccc2c(c1)OCO2",
    "result": "6.2 µM (active)"
  }
]

--- query ---
Ask: Give the measured AC50 of "O=C(Nc1ccc(F)cc1)N1CC(=O)N2[C@@H](CO)[C@H](c3ccc(-c4ccc(F)cc4)cc3)[C@@H]2C1" .
Result: 18.1 µM (active)
